assay system: T1, hANGPTL3(17-460)-His (human, UniProt Q9Y5C1 17-460)
T1 construct: Bought protein (R&D Systems); also called full-length mature human ANGPTL3 with a C-terminal decahistidine tag; Human ANGPTL3 (17-460)-His
T1 sequence: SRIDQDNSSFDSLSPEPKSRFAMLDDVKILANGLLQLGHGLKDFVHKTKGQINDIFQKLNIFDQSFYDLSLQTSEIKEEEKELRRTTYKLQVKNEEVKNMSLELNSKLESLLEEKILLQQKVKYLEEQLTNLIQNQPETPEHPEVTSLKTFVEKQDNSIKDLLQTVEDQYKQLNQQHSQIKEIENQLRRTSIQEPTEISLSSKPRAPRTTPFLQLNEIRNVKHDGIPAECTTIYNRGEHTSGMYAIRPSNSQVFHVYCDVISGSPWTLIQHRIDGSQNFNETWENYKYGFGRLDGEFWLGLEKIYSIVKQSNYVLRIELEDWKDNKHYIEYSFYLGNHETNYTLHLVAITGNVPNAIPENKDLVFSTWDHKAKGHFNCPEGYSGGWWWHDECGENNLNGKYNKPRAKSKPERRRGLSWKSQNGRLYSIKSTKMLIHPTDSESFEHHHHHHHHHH
protocol text: SPR Biacore, antigen captured, 37C, pH 7.4, HBS-EP

binder	kon, M⁻¹ s⁻¹
H4H1250P (antibody, IgG4, V domains shown) VH: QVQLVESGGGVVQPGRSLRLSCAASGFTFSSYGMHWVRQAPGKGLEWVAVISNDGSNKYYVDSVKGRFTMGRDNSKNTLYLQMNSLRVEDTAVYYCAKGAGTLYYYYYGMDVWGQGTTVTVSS VL: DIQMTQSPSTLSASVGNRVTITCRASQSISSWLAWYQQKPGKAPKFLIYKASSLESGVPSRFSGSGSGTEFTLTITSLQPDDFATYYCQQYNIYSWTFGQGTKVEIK	3.5e+06
H4H1279P (antibody, IgG4, V domains shown) VH: QVQLVESGGGLVKPGGSLRLSCAASGFTFSDYYMSWIRQAPGKGLEWVSYIGSSGVNMYYADSVKGRFTISRDNAKNSLYLEMNSLRAEDTAVYYCARDSSQLGFDYWGQGTLVTVSS VL: DIQMTQSPSSLSASVGDRVTITCRTSQNIINFLNWYQQKPGKAPKLLIYTTSTLQSGVPSRFSGSGSGTDFTLSINSLQPEDFATYFCQQTYSNPLTFGGGTKLEIKR	4.74e+06
H4H1292P (antibody, IgG4, V domains shown) VH: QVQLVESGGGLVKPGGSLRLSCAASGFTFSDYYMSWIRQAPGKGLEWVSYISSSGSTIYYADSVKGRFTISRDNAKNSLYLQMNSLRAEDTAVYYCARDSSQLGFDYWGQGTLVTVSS VL: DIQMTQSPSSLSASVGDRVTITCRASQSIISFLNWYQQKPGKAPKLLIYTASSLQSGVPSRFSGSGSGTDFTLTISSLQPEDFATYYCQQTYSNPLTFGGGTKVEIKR	1.89e+06
